System: MV-4-11 leukemia cell line
assay_method_text: CellTiter-Glo (CTG) cytotoxic assay
measurement_context: Homo sapiens, MV4-11, 72 h, read-out: Cytotoxicity IC50, MV-4-11
readout: pIC50
Hey, just a heads up that pIC50 is the negative log base 10 of the concentration in molar.

- COc1cccc2c1C(=O)c1c(O)c3c(c(O)c1C2=O)C[C@@](O)(C(=O)CO)C[C@@H]3O[C@H]1C[C@H](N)[C@H](O)[C@H](C)O1 [Adriamycin, reference compound]: 6.80

Consider the additional molecule presented here.
Qu. Look at this molecule and give its reported pIC50. CC(=O)NCc1nc(-c2ccccn2)cc(O)c1[S+](C)[O-] (racemic) [(±)-2]
Ans. 5.01
